Target Desc: NEK7 (Homo sapiens (Human), UniProt Q8TDX7+Q96SW2)
Sequence (Q8TDX7 whole entry): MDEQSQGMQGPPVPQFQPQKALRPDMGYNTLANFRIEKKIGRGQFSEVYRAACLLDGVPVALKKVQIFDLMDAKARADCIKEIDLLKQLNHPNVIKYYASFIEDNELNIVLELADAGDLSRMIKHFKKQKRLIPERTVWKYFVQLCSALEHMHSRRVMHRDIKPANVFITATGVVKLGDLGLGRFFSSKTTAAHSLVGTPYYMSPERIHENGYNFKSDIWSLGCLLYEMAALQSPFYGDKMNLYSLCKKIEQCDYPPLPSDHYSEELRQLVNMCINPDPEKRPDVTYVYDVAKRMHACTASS
Sequence (Q96SW2 whole entry): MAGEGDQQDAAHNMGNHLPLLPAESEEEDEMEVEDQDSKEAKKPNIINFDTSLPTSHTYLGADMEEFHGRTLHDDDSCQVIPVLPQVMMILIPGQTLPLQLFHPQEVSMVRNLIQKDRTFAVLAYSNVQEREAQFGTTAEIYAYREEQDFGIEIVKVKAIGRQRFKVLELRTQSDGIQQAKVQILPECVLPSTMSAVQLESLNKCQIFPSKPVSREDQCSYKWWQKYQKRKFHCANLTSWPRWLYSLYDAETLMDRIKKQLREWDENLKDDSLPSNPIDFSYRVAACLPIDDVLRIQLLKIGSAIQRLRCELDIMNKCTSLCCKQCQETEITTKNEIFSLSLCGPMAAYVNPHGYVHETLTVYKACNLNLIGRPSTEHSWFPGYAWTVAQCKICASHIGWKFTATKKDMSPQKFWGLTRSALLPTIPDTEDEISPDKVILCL
Sequence (Q16531 2-1140 partner): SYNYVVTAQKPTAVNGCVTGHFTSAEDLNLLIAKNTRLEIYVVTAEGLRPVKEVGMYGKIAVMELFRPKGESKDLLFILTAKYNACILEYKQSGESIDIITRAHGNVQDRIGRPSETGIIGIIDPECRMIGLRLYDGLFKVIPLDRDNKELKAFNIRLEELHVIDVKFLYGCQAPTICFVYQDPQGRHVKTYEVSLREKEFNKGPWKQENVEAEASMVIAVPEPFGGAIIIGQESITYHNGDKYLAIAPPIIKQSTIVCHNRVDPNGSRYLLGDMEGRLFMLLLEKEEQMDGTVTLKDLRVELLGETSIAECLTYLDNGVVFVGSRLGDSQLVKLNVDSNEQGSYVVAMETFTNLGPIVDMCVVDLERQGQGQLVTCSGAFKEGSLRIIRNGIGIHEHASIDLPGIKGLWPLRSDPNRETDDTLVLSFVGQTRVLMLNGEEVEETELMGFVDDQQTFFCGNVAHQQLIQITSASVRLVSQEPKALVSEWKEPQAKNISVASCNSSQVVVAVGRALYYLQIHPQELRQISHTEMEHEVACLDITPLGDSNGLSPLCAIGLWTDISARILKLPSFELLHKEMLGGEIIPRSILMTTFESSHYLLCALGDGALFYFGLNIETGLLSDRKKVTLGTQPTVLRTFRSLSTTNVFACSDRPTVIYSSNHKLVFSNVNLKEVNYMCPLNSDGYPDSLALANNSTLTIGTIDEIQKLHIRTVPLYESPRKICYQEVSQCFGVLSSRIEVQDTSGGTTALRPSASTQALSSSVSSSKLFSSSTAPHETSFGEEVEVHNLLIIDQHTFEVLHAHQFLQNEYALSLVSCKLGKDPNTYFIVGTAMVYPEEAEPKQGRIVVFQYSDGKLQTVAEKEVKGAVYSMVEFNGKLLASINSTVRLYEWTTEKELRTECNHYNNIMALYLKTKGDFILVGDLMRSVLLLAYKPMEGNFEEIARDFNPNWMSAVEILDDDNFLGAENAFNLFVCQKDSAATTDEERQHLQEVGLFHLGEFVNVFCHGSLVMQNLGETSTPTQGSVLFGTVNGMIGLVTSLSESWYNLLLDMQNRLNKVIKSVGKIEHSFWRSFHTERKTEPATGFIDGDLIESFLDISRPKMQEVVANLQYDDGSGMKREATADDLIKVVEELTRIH
Test Description: NEK7 NanoBiT degradation assay in Cal51 NEK7 NanoBiT cell line
Format: cell-based
Condition Parameters: Cal51 NEK7 NanoBiT cells, 24 hours; read-out: NEK7 NanoBiT DC50
Readout: DC50 (nM)

Molecule: Cc1cnc(C(C)(C)C(=O)NCc2cc(F)c(C3CCC(=O)NC3=O)c(Cl)c2)o1 (stereo not shown)
DC50, nM: 73

Molecule: CC1(c2cnc(C(C)(C)C(=O)NCc3cc(Cl)c(C4CCC(=O)NC4=O)c(Cl)c3)nc2)CC1 (stereo not shown)
DC50, nM: 19

Molecule: Cc1cnc(C(C)(C)C(=O)NCc2cc(Cl)c([C@@]3(F)CCC(=O)NC3=O)c(Cl)c2)nc1 (single isomer, unassigned)
DC50, nM: 1000

Molecule: Cn1ncc2ccc(C3(C(=O)NCc4cc(Cl)c(C5CCC(=O)NC5=O)c(Cl)c4)CCOCC3)cc21 (stereo not shown)
DC50, nM: 2

Molecule: CC(C)(C(=O)NCc1cc(Cl)c(C2CCC(=O)NC2=O)c(Cl)c1)c1ccc2ocnc2c1 (stereo not shown)
DC50, nM: 0.1

a = CC(C)(C(=O)NCc1cc(Cl)c(C2CCC(=O)NC2=O)c(Cl)c1)c1ncc(CC(F)(F)F)cn1 (stereo not shown)
b = Cc1cc(C(C)(C)C(=O)NCc2cc(Cl)c(C3CCC(=O)NC3=O)c(Cl)c2)no1 (stereo not shown)
Could you determine which record has the numerically smaller DC50? Candidates: a and b Selection: enter the item's label.
b
(b: 10 nM, a: 138 nM)

---

Target Desc: CRBN-DDB1 (Homo sapiens (Human))
Test Description: Compound binding to CRBN by HTRF assay
Condition Parameters: HTRF class; Cereblon binding
Here the recorded EC50 is given for each entry.

Compound: Cc1cc(CNC(=O)C(C)(C)c2ccncc2)cc(Cl)c1C1CCC(=O)NC1=O (stereo not drawn) [Compound 107]
Readout: EC50
Result: 100 to 1000 nM
//
Compound: CC(C)(C(=O)NCc1cc(Cl)c(C2CCC(=O)NC2=O)c(Cl)c1)c1ccc(=O)[nH]c1 (stereo not drawn) [Compound 79]
Readout: EC50
Result: 100 to 1000 nM
//
Compound: CC(C)(C(=O)NCc1cc(Cl)c(C2CCC(=O)NC2=O)c(Cl)c1)c1cc(C2CC2)ncn1 (stereo not drawn) [Compound 151]
Readout: EC50
Result: 100 to 1000 nM
//
Compound: CC(C)(C(=O)NCc1ccc(C2CCC(=O)NC2=O)c(Cl)c1)c1cnc(F)nc1 (stereo not drawn) [Compound 3]
Readout: EC50
Result: 100 to 1000 nM
//
Compound: Cc1ccc(C(C)(C)C(=O)NCc2cc(Cl)c(C3CCC(=O)NC3=O)c(Cl)c2)nc1 (stereo not drawn) [Compound 89]
Readout: EC50
Result: 100 to 1000 nM

For the compound CC(C)(C(=O)NCc1cc(Cl)c(C2CCC(=O)NC2=O)c(Cl)c1)c1ncc(F)cn1 (stereo not drawn) [Compound 11] , what EC50 is on record?
100 to 1000 nM

Fill in the blank: the reported EC50 of CC(C)(C(=O)NCc1cc(Cl)c(C2CCC(=O)NC2=O)c(C#N)c1)c1ccccc1 (stereo not drawn) [Compound 242] is ____.
100 to 1000 nM

Returns the measured EC50 for the input compound. Input: CC(C)(C(=O)NCc1cc(Cl)c(C2CCC(=O)NC2=O)c(Cl)c1)c1ccn2nccc2c1 (stereo not drawn) [Compound 82]
≤ 100 nM

So what's the measured EC50 for this one? Cc1ccc(C(C)(C)C(=O)NCc2cc(F)c(C3CCC(=O)NC3=O)c(Cl)c2)nn1 (stereo not drawn) [Compound 275]
100 to 1000 nM

What does the record list as EC50 for CC(C)(C(=O)NCc1cc(Cl)c(C2CCC(=O)NC2=O)c(Cl)c1)c1cc(F)[nH]c(=O)c1 (stereo not drawn) [Compound 59] ?
100 to 1000 nM

---

Target Desc: NEK7 (Homo sapiens (Human), UniProt Q8TDX7+Q96SW2)
Test Description: NEK7 NanoBiT degradation assay in Cal51 NEK7 NanoBiT cell line
Assay type: cell-based
Condition Parameters: Cal51 NEK7 NanoBiT cells, 24 hours; read-out: NEK7 NanoBiT DC50
Readout: DC50 (nM)

Solved entries:
Molecule: COCCc1cnc(C(C)(C)C(=O)NCc2cc(Cl)c(C3CCC(=O)NC3=O)c(Cl)c2)nc1 (stereo not drawn)
Target Desc: NEK7 (Homo sapiens (Human), UniProt Q8TDX7+Q96SW2)
Readout: DC50
Result Number: 672

Molecule: CC(C)(C(=O)NCc1cc(Cl)c(C2CCC(=O)NC2=O)c(Cl)c1)c1ccc(C(F)(F)F)nn1 (stereo not drawn)
Target Desc: NEK7 (Homo sapiens (Human), UniProt Q8TDX7+Q96SW2)
Readout: DC50
Result Number: 13

A = CC(C)(C(=O)NCc1cc(Cl)c(C2CCC(=O)NC2=O)c(Cl)c1)c1ncc(F)cn1 (stereo not drawn)
B = CC(C)(C(=O)NCc1cc(Cl)c([C@@]2(F)CCC(=O)NC2=O)c(Cl)c1)c1ccccc1 (single isomer, unassigned)
C = COc1nccc(C(C)(C)C(=O)NCc2cc(Cl)c(C3CCC(=O)NC3=O)c(Cl)c2)n1 (stereo not drawn)
D = Cn1ncc2ccc(C(C)(C)C(=O)NCc3cc(Cl)c(C4CCC(=O)NC4=O)c(Cl)c3)cc21 (stereo not drawn)
Sort (4 molecules) by DC50: min first. Would you mind listing the labels in the order requested?
D, A, C, B
(D: 0.4 nM, A: 9 nM, C: 61 nM, B: 1000 nM)

---

Target Desc: NEK7 (Homo sapiens (Human), UniProt Q8TDX7+Q96SW2)
Test Description: NEK7 NanoBiT degradation assay in Cal51 NEK7 NanoBiT cell line
Format: cell-based
Condition Parameters: Cal51 NEK7 NanoBiT cells, 24 hours; read-out: NEK7 NanoBiT DC50
Protocol: Cal51 NEK7 NanoBiT cell line was generated via CRISPR Knock-In of the HiBiT tag in NEK7 gene and stable infection with a lentivirus carrying LgBiT protein. The cell line was generated in house. […] Cells were incubated at 37° C., 5% CO2 for 24 hours and then signal was read on a Pherastar FSX using “LUM plus” optic module with 4095 gain and measurement interval time 0.2 seconds. […]
Readout: DC50 (nM)

Past entries and their recorded results:
Compound: CC(C)(C(=O)NCc1cc(Cl)c(C2CCC(=O)NC2=O)c(Cl)c1)c1ccc(S(N)(=O)=O)cc1F (stereo not shown)
Unit Descriptor: nM
DC50: 1
--
Compound: Cc1cc(C(C)(C)C(=O)NCc2cc(Cl)c(C3CCC(=O)NC3=O)c(Cl)c2)cc(=O)[nH]1 (stereo not shown)
Unit Descriptor: nM
DC50: 20
--
Compound: Cn1cccc(C(C)(C)C(=O)NCc2cc(Cl)c(C3CCC(=O)NC3=O)c(Cl)c2)c1=O (stereo not shown)
Unit Descriptor: nM
DC50: 176
--
Compound: CC(C)(C(=O)NCc1cc(Cl)c(C2CCC(=O)NC2=O)c(Cl)c1)c1ccn2cnnc2c1 (stereo not shown)
Unit Descriptor: nM
DC50: 38
--
Compound: COc1conc1C(C)(C)C(=O)NCc1cc(F)c(C2CCC(=O)NC2=O)c(Cl)c1 (stereo not shown)
Unit Descriptor: nM
DC50: 11

A = CC(C)(C(=O)NCc1cc(Cl)c(C2CCC(=O)NC2=O)c(Cl)c1)c1ccnc(C(F)(F)F)c1 (stereo not shown)
B = COc1ccc(C(C)(C)C(=O)NCc2cc(F)c(C3CCC(=O)NC3=O)c(Cl)c2)nn1 (stereo not shown)
// which entry reports the smaller DC50, A or B ? Please respond with the label that marks your chosen entry.
B

---

Target Desc: CRBN-DDB1 (Homo sapiens (Human), UniProt Q96SW2)
Sequence (Q96SW2 whole entry): as the sequence (Q96SW2 whole entry) above
Sequence (Q16531 whole entry partner): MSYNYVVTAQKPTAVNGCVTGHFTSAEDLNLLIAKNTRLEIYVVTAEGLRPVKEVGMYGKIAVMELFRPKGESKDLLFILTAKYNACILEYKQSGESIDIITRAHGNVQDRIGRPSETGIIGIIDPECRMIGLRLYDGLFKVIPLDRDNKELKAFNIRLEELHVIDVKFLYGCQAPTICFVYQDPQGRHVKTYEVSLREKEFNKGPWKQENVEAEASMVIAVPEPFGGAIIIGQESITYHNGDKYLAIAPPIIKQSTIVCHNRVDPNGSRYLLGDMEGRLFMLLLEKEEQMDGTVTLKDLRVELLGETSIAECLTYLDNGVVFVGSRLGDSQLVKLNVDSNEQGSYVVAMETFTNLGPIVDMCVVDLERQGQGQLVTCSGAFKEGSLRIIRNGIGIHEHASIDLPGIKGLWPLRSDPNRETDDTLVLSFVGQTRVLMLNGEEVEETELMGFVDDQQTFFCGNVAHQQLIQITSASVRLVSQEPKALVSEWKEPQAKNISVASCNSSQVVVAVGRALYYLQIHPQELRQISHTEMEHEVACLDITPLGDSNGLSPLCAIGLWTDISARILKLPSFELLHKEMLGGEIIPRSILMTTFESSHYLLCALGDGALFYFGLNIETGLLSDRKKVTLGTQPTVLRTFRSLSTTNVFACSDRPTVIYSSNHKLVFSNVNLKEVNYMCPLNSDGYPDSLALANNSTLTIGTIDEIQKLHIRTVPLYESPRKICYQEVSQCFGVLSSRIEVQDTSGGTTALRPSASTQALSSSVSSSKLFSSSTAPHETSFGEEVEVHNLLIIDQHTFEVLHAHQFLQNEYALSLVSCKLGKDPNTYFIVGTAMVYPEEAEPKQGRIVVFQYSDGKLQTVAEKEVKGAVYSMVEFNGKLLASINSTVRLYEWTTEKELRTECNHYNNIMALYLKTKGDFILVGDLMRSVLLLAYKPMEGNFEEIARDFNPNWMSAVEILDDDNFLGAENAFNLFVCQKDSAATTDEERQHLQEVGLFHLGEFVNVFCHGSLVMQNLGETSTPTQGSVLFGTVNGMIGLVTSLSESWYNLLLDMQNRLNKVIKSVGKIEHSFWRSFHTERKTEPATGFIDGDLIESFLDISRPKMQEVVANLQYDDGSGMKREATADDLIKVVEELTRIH
Test Description: Compound binding to CRBN by HTRF assay
pEC50: −log10 of the molar value.
Readout: pEC50

Compound: CC(C)(O)c1ccc(C(C)(C)C(=O)NCc2cc(Cl)c(C3CCC(=O)NC3=O)c(Cl)c2)nn1 (stereo not drawn)
pEC50: 6.70

a = CC(C)(C(=O)NCc1cc(Cl)c(C2CCC(=O)NC2=O)c(Cl)c1)c1ccc(C2CC2)nn1 (stereo not drawn)
b = CC(C)(C(=O)NCc1cc(Cl)c(C2CCC(=O)NC2=O)c(Cl)c1)c1ncncc1F (stereo not drawn)
Parameter check: reported pEC50 is higher for which label, a or b ? Provide the label of your selected option as the answer.
a
(a: 7.05, b: 6.68)

---

Target Desc: NEK7 (Homo sapiens (Human), UniProt Q8TDX7+Q96SW2)
Test Description: NEK7 NanoBiT degradation assay in Cal51 NEK7 NanoBiT cell line
Format: cell-based
Condition Parameters: NEK7 degradation, Cal51 NEK7 NanoBiT cells, 24 hours; read-out: NanoBiT DC50
Readout: DC50

Which DC50 value is on record for Cc1conc1C(C)(C)C(=O)NCc1cc(F)c(C2CCC(=O)NC2=O)c(Cl)c1 (stereo not shown) ?
100 to 1000 nM

Suppose we examine the molecule CC(C)(C(=O)NCc1ccc(C2CCC(=O)NC2=O)c(Cl)c1)c1ccc(C#N)cc1 (stereo not shown) ; what DC50 value has been reported?
≤ 100 nM

GET /values?readout=DC50&item= Cc1cnc(C(C)(CO)C(=O)NCc2cc(Cl)c(C3CCC(=O)NC3=O)c(Cl)c2)nc1 (stereo not shown)
≤ 100 nM

Entry under review: Cc1ccc(C(C)(C)C(=O)NCc2cc(F)c(C3CCC(=O)NC3=O)c(Cl)c2)nn1 (stereo not shown) . Reported DC50?
100 to 1000 nM

Which DC50 value is on record for CC(C)(C(=O)NCc1cc(Cl)c(C2CCC(=O)NC2=O)c(Cl)c1)c1ccncc1 (stereo not shown) ?
≤ 100 nM

Could you tell me which DC50 is on file for CC(C)(C(=O)NCc1cc(Cl)c([C@@H]2CCC(=O)NC2=O)c(Cl)c1)c1ncccn1 (single isomer, unassigned) ?
100 to 1000 nM
